experimental-system: hERG (KCNH2) (Homo sapiens, UniProt Q12809)
Sequence (Q12809 whole entry): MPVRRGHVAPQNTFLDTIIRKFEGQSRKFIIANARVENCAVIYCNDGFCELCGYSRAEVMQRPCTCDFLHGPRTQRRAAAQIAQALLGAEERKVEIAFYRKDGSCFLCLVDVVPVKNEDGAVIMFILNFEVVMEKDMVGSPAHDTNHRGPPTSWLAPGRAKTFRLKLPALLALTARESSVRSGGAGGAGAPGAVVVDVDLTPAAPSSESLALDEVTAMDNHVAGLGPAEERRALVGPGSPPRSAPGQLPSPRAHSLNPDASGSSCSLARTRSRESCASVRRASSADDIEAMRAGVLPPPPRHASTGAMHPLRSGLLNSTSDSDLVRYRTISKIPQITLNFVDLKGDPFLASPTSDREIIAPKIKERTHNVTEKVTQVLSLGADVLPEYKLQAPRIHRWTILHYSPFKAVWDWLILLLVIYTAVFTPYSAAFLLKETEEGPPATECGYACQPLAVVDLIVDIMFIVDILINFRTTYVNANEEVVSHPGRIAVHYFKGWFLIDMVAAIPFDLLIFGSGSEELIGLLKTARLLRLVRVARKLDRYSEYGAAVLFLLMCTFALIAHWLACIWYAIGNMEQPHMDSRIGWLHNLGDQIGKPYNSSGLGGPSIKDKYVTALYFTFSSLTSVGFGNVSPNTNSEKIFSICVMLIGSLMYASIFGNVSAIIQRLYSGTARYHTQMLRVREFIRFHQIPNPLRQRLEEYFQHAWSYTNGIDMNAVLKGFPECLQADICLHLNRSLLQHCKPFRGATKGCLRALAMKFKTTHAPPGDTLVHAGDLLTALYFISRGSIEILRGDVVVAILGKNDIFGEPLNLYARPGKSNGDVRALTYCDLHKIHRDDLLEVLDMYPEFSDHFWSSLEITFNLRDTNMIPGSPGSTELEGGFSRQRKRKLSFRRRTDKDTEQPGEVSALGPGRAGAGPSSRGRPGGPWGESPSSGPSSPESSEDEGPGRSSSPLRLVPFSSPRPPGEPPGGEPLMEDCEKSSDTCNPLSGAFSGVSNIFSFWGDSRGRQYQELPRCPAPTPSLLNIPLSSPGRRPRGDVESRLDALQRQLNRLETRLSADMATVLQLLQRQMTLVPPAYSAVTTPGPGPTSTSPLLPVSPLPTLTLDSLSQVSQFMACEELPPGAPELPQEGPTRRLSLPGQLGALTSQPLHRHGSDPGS
procedure-summary: Inhibition of human ERG expressed in CHO-K1 cells at 10 uM by whole-cell patch clamp technique
Type: cell-based
condition-parameters: CHO-K1 cells that express human ERG
Here the recorded inhibition at 10 µM is given for each entry.
assay-metric: inhibition at 10 µM (%)

Cc1nnc(-c2cc3c(nc(C)n3C)c3c2CC[C@@H](c2ccccc2C)O3)o1 : 27
Cc1ccccc1[C@@H]1CCc2c(C(=O)NCC#N)cc3c(nc(C)n3C)c2O1 : 18
CONC(=O)c1cc2c(nc(C)n2C)c2c1CC[C@@H](c1ccccc1C)O2 : 13
CCNC(=O)c1cc2c(nc(C)n2C)c2c1CC[C@@H](c1ccccc1C)O2 : 24
Cc1ccccc1[C@@H]1CCc2c(C(=O)NCC[S+](C)[O-])cc3c(nc(C)n3C)c2O1 (some centres undefined) : 6
Cc1ccccc1[C@@H]1CCc2c(C(=O)N3CC(C)(O)C3)cc3c(nc(C)n3C)c2O1 : 1
CON(C)C(=O)c1cc2c(nc(C)n2C)c2c1CC[C@@H](c1ccccc1C)O2 : 13
Cc1nc2c3c(c(C(=O)N(C)C)cc2n1C)CC[C@@H](c1ccc(F)cc1)O3 : 28
CNC(=O)c1cc2c(nc(C)n2C)c2c1CC[C@@H](c1ccc(Cl)cc1C)O2 : 45

====

# pIC50 annotations
procedure-summary: Inhibition of H+/K+ ATPase in hog gastric mucosa by malachite green based competitive binding assay
Type: tissue-based, Sus scrofa
assay-metric: pIC50

CCc1ccccc1[C@@H]1CCc2c(C(=O)N(C)C)cc3c(nc(C)n3C)c2O1 : 5.4
Cc1ccccc1[C@@H]1CCc2c(C(=O)N3CC(F)(F)C3)cc3c(nc(C)n3C)c2O1 : 4.7
COCc1nc2c3c(c(C(=O)N(C)C)cc2n1C)CC[C@@H](c1ccccc1C)O3 : 4.57
COC1CN(C(=O)c2cc3c(nc(C)n3C)c3c2CC[C@@H](c2ccc(Cl)cc2C)O3)C1 : 5.4
Cc1ccccc1[C@@H]1CCc2c(C(=O)NCC[S+](C)[O-])cc3c(nc(C)n3C)c2O1 (stereo not given in full) : 4.6

====

pIC50 values by entry
procedure-summary: Inhibition of H+/K+ ATPase in hog gastric mucosa by malachite green based competitive binding assay
Assay type: tissue-based, Sus scrofa
assay-metric: pIC50

Cc1ccccc1[C@@H]1CCc2c(C(=O)NC(C)C)cc3c(nc(C)n3C)c2O1 : 4.7
Cc1ccccc1[C@@H]1CCc2c(C(=O)N3CCOCC3)cc3c(nc(C)n3C)c2O1 : 4.8
Cc1nc2c3c(c(C(=O)N(C)C)cc2n1C)CC[C@@H](c1ccc2ccccc2c1)O3 : 4.1
CNC(=O)c1cc2c(nc(C)n2C)c2c1CC[C@@H](c1ccccc1C)O2 : 5.1
Cc1ccccc1[C@@H]1CCc2c(C(=O)N3CC(C(=O)N(C)C)C3)cc3c(nc(C)n3C)c2O1 : 4.9
Cc1nc2c3c(c(C(=O)N(C)C)cc2n1C)CC[C@@H](c1ccccc1)O3 : 5.3
Cc1ccccc1[C@@H]1CCc2c(C(=O)NCC3CC3)cc3c(nc(C)n3C)c2O1 : 4.7
Cc1ccccc1[C@@H]1CCc2c(C(=O)NCC#N)cc3c(nc(C)n3C)c2O1 : 4.7
CNC(=O)c1cc2c(nc(C)n2C)c2c1CC[C@@H](c1ccc(Cl)cc1)O2 : < 5

====

procedure-summary: Inhibition of H+/K+ ATPase in hog gastric mucosa by malachite green based competitive binding assay
Assay type: tissue-based, Sus scrofa
Label rule, in plain words: pIC50 of 5 and up is MET, under 5 is NOT MET.

Cc1ccccc1[C@@H]1CCc2c(C(=O)N3CC(C)(O)C3)cc3c(nc(C)n3C)c2O1 : NOT MET
Cc1nnc(-c2cc3c(nc(C)n3C)c3c2CC[C@@H](c2ccccc2C)O3)o1 : NOT MET
Cc1ccccc1[C@@H]1CCc2c(C(=O)NCC3CCCO3)cc3c(nc(C)n3C)c2O1 (stereo not given in full) : NOT MET
CON(C)C(=O)c1cc2c(nc(C)n2C)c2c1CC[C@@H](c1ccccc1C)O2 : MET
Cc1ccccc1[C@@H]1CCc2c(C(=O)NCC3CCCCO3)cc3c(nc(C)n3C)c2O1 (stereo not given in full) : NOT MET
Cc1ccccc1[C@@H]1CCc2c(C(=O)NC3COC3)cc3c(nc(C)n3C)c2O1 : NOT MET
CNC(=O)c1cc2c(nc(C)n2C)c2c1CC[C@@H](c1ccccc1)O2 : NOT MET
Cc1nc2c3c(c(C(=O)N(C)C)cc2n1C)CC[C@@H](c1ccc(Cl)cc1Cl)O3 : MET
Cc1ccccc1[C@@H]1CCc2c(C(=O)N(C)C)cc3c(nc(C)n3C)c2O1 : MET
Cc1nc2c3c(c(C(=O)N(C)C)cc2[nH]1)CC[C@@H](c1ccccc1C)O3 : MET
Cc1ccccc1[C@@H]1CCc2c(C(=O)N3CCC3C(N)=O)cc3c(nc(C)n3C)c2O1 (stereo not given in full) : NOT MET
COCc1ccccc1[C@@H]1CCc2c(C(=O)N(C)C)cc3c(nc(C)n3C)c2O1 : NOT MET
CONC(=O)c1cc2c(nc(C)n2C)c2c1CC[C@@H](c1ccccc1C)O2 : NOT MET
Cc1nc2c3c(c(C(=O)N(C)C)cc2n1C)CC[C@@H](c1ccc(F)cc1)O3 : MET
Cc1cc(Cl)ccc1[C@@H]1CCc2c(C(=O)N(C)C)cc3c(nc(C)n3C)c2O1 : MET
CCCNC(=O)c1cc2c(nc(C)n2C)c2c1CC[C@@H](c1ccccc1C)O2 : NOT MET

====

procedure-summary: Dissociation constant, pKa at pH 2.0 to 11.0 by potentiometric cosolvent titration
Assay type: physicochemical
Would you please tag the item satisfied when its pKa is 6 or above, and not satisfied when it is below?

COCc1cc2c(nc(C)n2C)c2c1CC[C@@H](c1ccccc1C)O2 : satisfied
COC1CN(C(=O)c2cc3c(nc(C)n3C)c3c2CC[C@@H](c2ccccc2C)O3)C1 : not satisfied
Cc1ccccc1[C@@H]1CCc2c(C(=O)N3CC(F)C3)cc3c(nc(C)n3C)c2O1 : not satisfied
CNC(=O)c1cc2c(nc(C)n2C)c2c1CC[C@@H](c1ccccc1C)O2 : not satisfied
CCCNC(=O)c1cc2c(nc(C)n2C)c2c1CC[C@@H](c1ccccc1C)O2 : not satisfied
Cc1ccccc1[C@@H]1CCc2c(C(=O)N3CC(F)(F)C3)cc3c(nc(C)n3C)c2O1 : not satisfied

====

Reported inhibition at 10 µM is given for each of the following compounds.
experimental-system: hERG (KCNH2) (Homo sapiens, UniProt Q12809)
procedure-summary: Inhibition of human ERG expressed in CHO-K1 cells at 10 uM by whole-cell patch clamp technique
Type: cell-based
condition-parameters: CHO-K1 cells that express human ERG
assay-metric: inhibition at 10 µM

Cc1ccccc1[C@@H]1CCc2c(C(=O)NC3CC3)cc3c(nc(C)n3C)c2O1 : 43%
CCc1ccccc1[C@@H]1CCc2c(C(=O)N(C)C)cc3c(nc(C)n3C)c2O1 : 11%
CSCCNC(=O)c1cc2c(nc(C)n2C)c2c1CC[C@@H](c1ccccc1C)O2 : 73%
Cc1ccccc1[C@@H]1CCc2c(C(=O)NCC3CCCCO3)cc3c(nc(C)n3C)c2O1 (some centres undefined) : 54%
Cc1ccccc1[C@@H]1CCc2c(C(=O)NCC3CCCO3)cc3c(nc(C)n3C)c2O1 (some centres undefined) : 75%
Cc1sccc1[C@@H]1CCc2c(C(=O)N(C)C)cc3c(nc(C)n3C)c2O1 : 18%
CNC(=O)c1cc2c(nc(C)n2C)c2c1CC[C@@H](c1ccccc1C)O2 : 3%
COC1CN(C(=O)c2cc3c(nc(C)n3C)c3c2CC[C@@H](c2ccccc2C)O3)C1 : 18%
COCc1cc2c(nc(C)n2C)c2c1CC[C@@H](c1ccccc1C)O2 : 34%
CC(=O)CNC(=O)c1cc2c(nc(C)n2C)c2c1CC[C@@H](c1ccccc1C)O2 : 63%
Cc1ccccc1[C@@H]1CCc2c(C(=O)N3CC(F)(F)C3)cc3c(nc(C)n3C)c2O1 : 28%
COCc1ccccc1[C@@H]1CCc2c(C(=O)N(C)C)cc3c(nc(C)n3C)c2O1 : 7%
Cc1cc(Cl)ccc1[C@@H]1CCc2c(C(=O)N3CCC3)cc3c(nc(C)n3C)c2O1 : 48%
Cc1ccccc1[C@@H]1CCc2c(C(=O)N(C)C)cc3c(nc(C)n3C)c2O1 : 33%
Cc1nc2c3c(c(C(=O)N(C)C)cc2n1C)CC[C@@H](c1ccccc1)O3 : 28%
Cc1nc2c3c(c(C(=O)N(C)C)cc2n1C)CC[C@@H](c1ccccc1F)O3 : 9%
Cc1ccccc1[C@@H]1CCc2c(C(=O)NC3COC3)cc3c(nc(C)n3C)c2O1 : 49%
Cc1nc2c3c(c(C(=O)N(C)C)cc2n1C)CC[C@@H](c1ccc2ccccc2c1)O3 : 65%
COCCNC(=O)c1cc2c(nc(C)n2C)c2c1CC[C@@H](c1ccccc1C)O2 : 55%
